# tgt: Delta-type opioid receptor (Homo sapiens, UniProt P41143)
# Sequence (P41143 whole entry): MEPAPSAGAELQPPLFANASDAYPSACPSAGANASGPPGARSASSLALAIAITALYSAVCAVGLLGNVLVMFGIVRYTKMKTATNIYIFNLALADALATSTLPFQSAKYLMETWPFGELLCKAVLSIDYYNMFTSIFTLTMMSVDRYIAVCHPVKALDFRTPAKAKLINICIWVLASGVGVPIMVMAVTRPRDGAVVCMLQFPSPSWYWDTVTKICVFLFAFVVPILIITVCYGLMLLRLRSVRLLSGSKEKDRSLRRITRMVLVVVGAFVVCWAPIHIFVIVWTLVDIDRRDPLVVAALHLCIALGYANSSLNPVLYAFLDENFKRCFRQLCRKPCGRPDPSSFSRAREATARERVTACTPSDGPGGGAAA
# measurement description: Displacement of [3H]DADLE from human recombinant delta opioid receptor expressed in CHO cells at 10 uM after 2 hrs by liquid scintillation counting
# Type: cell-based
assay metric: Activity (%)
Response body: numeric value in %, unit text excluded.

These recorded examples may help you get a feel for the data.
COC(=O)[C@@H]1C[C@H](OC(C)=O)C(=O)[C@H]2[C@@]1(C)CC[C@H]1C(=O)O[C@H](C(=O)c3ccccc3)C[C@]21C :: 100
COC(=O)[C@@H]1C[C@H](OC(C)=O)C(=O)[C@H]2[C@@]1(C)CC[C@H]1C(=O)O[C@H](C(=O)c3ccoc3)C[C@]21C :: 95

Lab note: next compound to report on.
Task: // returns reported Activity for input `COC(=O)[C@@H]1C[C@H](OC(C)=O)C(=O)[C@H]2[C@@]1(C)CC[C@H]1C(=O)O[C@H](C(=O)c3ccc(O)cc3)C[C@]21C`
Result: 100
